- assay: Study A17: PK of fospropofol and propofol after single oral dose of fospropofol disodium 800 mg in subjects with migraine
- conditions.used: female, human, plasma, po, 800 mg, Fospropofol AUC4, Mean, Mean without Subject 6008 (below limit of quantitation at all time points); Fospropofol Disodium 800 mg oral
- Procedure: The study is planned to complete approximately 85 subjects. • Enrolled subjects will be asked to come to the study site for treatment when they experience a qualifying migraine headache. Dosing must occur within 4 hours after onset of the migraine symptoms. […] Able to comprehend the nature of the study, capable of giving written informed consent, and able to communicate effectively with clinic staff (as assessed by the investigator) • 8. […]
metric: AUC (ng·h/mL)

- CC(C)c1cccc(C(C)C)c1OCOP(=O)(O)O [fospropofol]: 4650
